Numbers sourced from ChEMBL document CHEMBL2016543.

- systemName: Beta-secretase 1 (Homo sapiens, UniProt P56817)
- Sequence (P56817 whole entry): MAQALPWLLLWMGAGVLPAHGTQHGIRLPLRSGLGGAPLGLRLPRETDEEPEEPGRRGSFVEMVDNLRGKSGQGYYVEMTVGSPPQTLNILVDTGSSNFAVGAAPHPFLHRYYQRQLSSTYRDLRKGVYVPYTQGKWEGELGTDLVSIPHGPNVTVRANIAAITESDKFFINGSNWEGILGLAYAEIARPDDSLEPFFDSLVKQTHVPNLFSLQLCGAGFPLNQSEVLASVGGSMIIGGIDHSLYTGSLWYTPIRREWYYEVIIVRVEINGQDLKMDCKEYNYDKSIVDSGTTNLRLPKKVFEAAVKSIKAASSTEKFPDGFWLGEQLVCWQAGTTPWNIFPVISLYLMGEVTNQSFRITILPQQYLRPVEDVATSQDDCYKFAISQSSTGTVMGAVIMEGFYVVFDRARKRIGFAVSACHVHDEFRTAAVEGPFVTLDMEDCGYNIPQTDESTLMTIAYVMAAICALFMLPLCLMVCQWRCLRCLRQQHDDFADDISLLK
Starred links: 1 amine or outer side, 2 acyl side, 3 side chain; linkers in the order of their positions; H or OH if unused. Non-standard residues stand in square brackets, D forms with d. Residues, ends and D or L forms follow the SMILES beside them. LeuΨ(S-CHOHCH2)Ala = CC(C)C[C@H](N[*:1])[C@@H](O)C[C@@H](C)C(=O)[*:2]
In this section, each of the molecules is paired with its reported pIC50.
API: returns pIC50 as number; meaning -log10 of concentration in mol/L.

Past entries and their recorded results:
molecule: O=c1cc(-c2ccc(O)cc2)oc2cc(O)cc(O)c12 [APIGENIN]
pIC50: 4.41
--
molecule: CC(C)C[C@H](NC(=O)[C@H](CC(N)=O)NC(=O)[C@@H](NC(=O)[C@@H](N)CC(=O)O)C(C)C)[C@@H](O)C[C@@H](C)C(=O)N[C@@H](C)C(=O)N[C@@H](CC(=O)O)C(=O)N[C@@H](Cc1ccccc1)C(=O)O (H-DVN[LeuΨ(S-CHOHCH2)Ala]ADF-OH)
pIC50: 7.48
--
molecule: COc1cc(O)c2c(=O)cc(C(=O)NCCCCCCCCCCNc3c4c(nc5ccccc35)CCCC4)oc2c1.Cl
pIC50: 5.54
--
molecule: COc1cc(OC)c2c(=O)cc(C(=O)NCCCCCCCCCCNc3c4c(nc5ccccc35)CCCC4)oc2c1.Cl
pIC50: 5.68
--
molecule: Cl.O=C(NCCCCCCCCCCNc1c2c(nc3ccccc13)CCCC2)c1cc(=O)c2c(O)cc(O)cc2o1
pIC50: 5.44
--
molecule: COc1ccc2oc(C(=O)NCCCCCCCCCCNc3c4c(nc5cc(Cl)ccc35)CCCC4)cc(=O)c2c1.Cl
pIC50: 4.84
--
molecule: COc1cc2oc(C(=O)NCCCCCCCCCCNc3c4c(nc5ccccc35)CCCC4)cc(=O)c2cc1OC.Cl
pIC50: 5.52
--
molecule: Cl.O=C(NCCCCCCCCCCNc1c2c(nc3cc(Cl)ccc13)CCCC2)c1cc(=O)c2cc(O)c(O)cc2o1
pIC50: 4.87

Here `Cl.O=C(NCCCCCCCCCCNc1c2c(nc3cc(Cl)ccc13)CCCC2)c1cc(=O)c2ccccc2o1` was tested on Beta-secretase 1 (Homo sapiens, UniProt P56817), and its pIC50 came to 4.65

Recorded pIC50 for `Cl.O=C(NCCCCCCCCCCNc1c2c(nc3ccccc13)CCCC2)c1cc(=O)c2cc(O)ccc2o1` on Beta-secretase 1 (Homo sapiens, UniProt P56817) was 5.55

---

- systemName: Acetylcholinesterase (Homo sapiens, UniProt P22303)
- Sequence (P22303 whole entry): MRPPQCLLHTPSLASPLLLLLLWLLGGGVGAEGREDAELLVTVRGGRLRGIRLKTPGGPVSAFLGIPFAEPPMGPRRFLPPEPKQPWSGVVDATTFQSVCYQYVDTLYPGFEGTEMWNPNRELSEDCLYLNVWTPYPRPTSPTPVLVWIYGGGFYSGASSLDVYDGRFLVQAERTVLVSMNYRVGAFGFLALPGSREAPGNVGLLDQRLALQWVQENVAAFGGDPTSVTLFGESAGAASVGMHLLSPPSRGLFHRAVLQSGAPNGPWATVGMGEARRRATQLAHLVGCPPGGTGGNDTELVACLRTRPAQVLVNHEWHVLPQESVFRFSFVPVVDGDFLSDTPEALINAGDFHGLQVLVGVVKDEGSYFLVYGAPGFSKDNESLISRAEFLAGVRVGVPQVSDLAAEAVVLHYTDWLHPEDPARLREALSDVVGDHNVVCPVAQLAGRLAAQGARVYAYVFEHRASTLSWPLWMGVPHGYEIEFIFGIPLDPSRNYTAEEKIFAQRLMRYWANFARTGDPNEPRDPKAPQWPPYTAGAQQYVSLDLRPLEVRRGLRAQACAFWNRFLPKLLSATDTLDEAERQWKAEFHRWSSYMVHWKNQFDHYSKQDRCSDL
Entries and their measured log10(IC50) follow.
The figures below represent log10 of IC50, where IC50 is stated in nM.

smilesCode: COc1cc2oc(C(=O)NCCCCCCCCCCNc3c4c(nc5ccccc35)CCCC4)cc(=O)c2cc1OC.Cl
quantityMeasured: log10(IC50)
recordedValue: 0.26

log10(IC50) on Acetylcholinesterase (Homo sapiens, UniProt P22303) for `Cl.O=C(NCCCCCCCCCCNc1c2c(nc3cc(Cl)ccc13)CCCC2)c1cc(=O)c2cc(O)c(O)cc2o1` is -1.05

Form field log10(IC50) for item `Cl.O=C(NCCCCCCCCCCNc1c2c(nc3ccccc13)CCCC2)c1cc(=O)c2cc(O)c(O)cc2o1` on Acetylcholinesterase (Homo sapiens, UniProt P22303): 0.81

Let me check: `Cl.O=C(NCCCCCCCCCCNc1c2c(nc3cc(Cl)ccc13)CCCC2)c1cc(=O)c2c(O)cc(O)cc2o1` , system Acetylcholinesterase (Homo sapiens, UniProt P22303), measured log10(IC50) is -1.19

---

- systemName: Beta-secretase 1 (Homo sapiens)
- assayName: Competitive inhibition of human recombinant […] using panvera peptide as substrate preincubated for 60 mins before substrate addition by FRET assay
Starred links: 1 amine or outer side, 2 acyl side, 3 side chain; linkers in the order of their positions; H or OH if unused. Non-standard residues stand in square brackets, D forms with d. Residues, ends and D or L forms follow the SMILES beside them. LeuΨ(S-CHOHCH2)Ala = CC(C)C[C@H](N[*:1])[C@@H](O)C[C@@H](C)C(=O)[*:2]
quantityMeasured: Kic (µM)
Please state the figure in µM; there is no need to write the unit.

Consider the following illustrative entries.
molecule: O=c1cc(-c2ccc(O)cc2)oc2cc(O)cc(O)c12 [APIGENIN]
recordedValue: 11.3

molecule: COc1ccc2oc(C(=O)NCCCCCCCCCCNc3c4c(nc5cc(Cl)ccc35)CCCC4)cc(=O)c2c1.Cl
recordedValue: 4.23

molecule: Cl.O=C(NCCCCCCCCCCNc1c2c(nc3cc(Cl)ccc13)CCCC2)c1cc(=O)c2ccccc2o1
recordedValue: 6.58

molecule: CC(C)C[C@H](NC(=O)[C@H](CC(N)=O)NC(=O)[C@@H](NC(=O)[C@@H](N)CC(=O)O)C(C)C)[C@@H](O)C[C@@H](C)C(=O)N[C@@H](C)C(=O)N[C@@H](CC(=O)O)C(=O)N[C@@H](Cc1ccccc1)C(=O)O (H-DVN[LeuΨ(S-CHOHCH2)Ala]ADF-OH)
recordedValue: 0.0097

molecule: Cl.O=C(NCCCCCCCCCCNc1c2c(nc3ccccc13)CCCC2)c1cc(=O)c2c(O)cc(O)cc2o1
recordedValue: 1.06

response.value for `Cl.O=C(NCCCCCCCCCCNc1c2c(nc3ccccc13)CCCC2)c1cc(=O)c2cc(O)ccc2o1` (field: Kic) = 0.82

---

Below, each entry is listed with its recorded IC50.
- systemName: Acetylcholinesterase (Homo sapiens)
Express your answer in nM, writing the number without its unit.

smilesCode: Cl.O=C(NCCCCCCCCCCNc1c2c(nc3cc(Cl)ccc13)CCCC2)c1cc(=O)c2cc(O)ccc2o1
IC50 (nM): 1

smilesCode: Cl.O=C(NCCCCCCCCCCNc1c2c(nc3ccccc13)CCCC2)c1cc(=O)c2cc(O)ccc2o1
IC50 (nM): 8

smilesCode: COc1cc(OC)c2c(=O)cc(C(=O)NCCCCCCCCCCNc3c4c(nc5ccccc35)CCCC4)oc2c1.Cl
IC50 (nM): 2.3

smilesCode: Cl.O=C(NCCCCCCCCCCNc1c2c(nc3ccccc13)CCCC2)c1cc(=O)c2c(O)cc(O)cc2o1
IC50 (nM): 2.3

smilesCode: Cl.O=C(NCCCCCCCCCCNc1c2c(nc3ccccc13)CCCC2)c1cc(=O)c2ccccc2o1
IC50 (nM): 17.5

smilesCode: COc1ccc2oc(C(=O)NCCCCCCCCCCNc3c4c(nc5cc(Cl)ccc35)CCCC4)cc(=O)c2c1.Cl
IC50 (nM): 0.1

smilesCode: COc1cc2oc(C(=O)NCCCCCCCCCCNc3c4c(nc5cc(Cl)ccc35)CCCC4)cc(=O)c2cc1OC.Cl
IC50 (nM): 0.2

Next, consider the following molecule.
Summary: `COc1cc(OC)c2c(=O)cc(C(=O)NCCCCCCCCCCNc3c4c(nc5cc(Cl)ccc35)CCCC4)oc2c1.Cl` , Acetylcholinesterase (Homo sapiens), IC50 = 0.35

---

Reported Papp values are given for each entry in this list.
- assayName: in vitro
- runParameters: PAMPA, pH 7.4
- Description: Permeability of the compound in phosphate buffer at pH 7.4 by PAMPA
The reply should contain only the number, in ×10⁻⁶ cm/s.

smilesCode: COc1cc2oc(C(=O)NCCCCCCCCCCNc3c4c(nc5cc(Cl)ccc35)CCCC4)cc(=O)c2cc1OC.Cl
readoutUnit: ×10⁻⁶ cm/s
Papp: 7.4

// sample `Cl.O=C(NCCCCCCCCCCNc1c2c(nc3ccccc13)CCCC2)c1cc(=O)c2c(O)cc(O)cc2o1` , its Papp was 13.1

Record `Cl.O=C(NCCCCCCCCCCNc1c2c(nc3cc(Cl)ccc13)CCCC2)c1cc(=O)c2ccccc2o1` . Reported Papp: 7.1

Record `Cl.O=C(NCCCCCCCCCCNc1c2c(nc3cc(Cl)ccc13)CCCC2)c1cc(=O)c2cc(O)ccc2o1` , field Papp: 11.5

---

- systemName: Cholinesterase (Equus caballus)
- Sequence (P81908 whole entry): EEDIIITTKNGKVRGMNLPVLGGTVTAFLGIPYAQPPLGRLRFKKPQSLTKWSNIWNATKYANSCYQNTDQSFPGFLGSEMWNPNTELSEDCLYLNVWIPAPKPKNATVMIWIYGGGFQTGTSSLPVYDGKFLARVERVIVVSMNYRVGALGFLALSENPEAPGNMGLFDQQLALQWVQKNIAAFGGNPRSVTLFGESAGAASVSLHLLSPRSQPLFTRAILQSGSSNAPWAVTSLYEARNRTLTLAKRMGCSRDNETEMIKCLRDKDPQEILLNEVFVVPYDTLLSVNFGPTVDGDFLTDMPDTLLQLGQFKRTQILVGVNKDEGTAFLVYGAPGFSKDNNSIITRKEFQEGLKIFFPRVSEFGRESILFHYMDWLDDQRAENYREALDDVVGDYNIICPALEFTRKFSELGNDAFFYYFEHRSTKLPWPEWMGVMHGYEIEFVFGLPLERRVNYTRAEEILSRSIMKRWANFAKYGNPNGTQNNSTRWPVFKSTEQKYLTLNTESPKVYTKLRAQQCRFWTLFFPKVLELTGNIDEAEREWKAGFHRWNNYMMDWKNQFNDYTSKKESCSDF
Entries and their IC50
Dear colleague, please return just the value in nM, with no unit written.

Would you please look over these solved cases?
smilesCode: COc1cc(OC)c2c(=O)cc(C(=O)NCCCCCCCCCCNc3c4c(nc5cc(Cl)ccc35)CCCC4)oc2c1.Cl
systemName: Cholinesterase (Equus caballus)
IC50 / nM: 1

smilesCode: O=C(NCCCCCCCCCCNc1c2c(nc3cc(Cl)cc(Cl)c13)CCCC2)c1cc(=O)c2ccccc2o1
systemName: Cholinesterase (Equus caballus)
IC50 / nM: 100

The value of IC50 recorded for `Cl.O=C(NCCCCCCCCCCNc1c2c(nc3ccccc13)CCCC2)c1cc(=O)c2cc(O)c(O)cc2o1` when tested on Cholinesterase (Equus caballus) reads 8

`Cl.O=C(NCCCCCCCCCCNc1c2c(nc3ccccc13)CCCC2)c1cc(=O)c2ccccc2o1` on Cholinesterase (Equus caballus) gives IC50 = 0.18

`Cl.O=C(NCCCCCCCCCCNc1c2c(nc3ccccc13)CCCC2)c1cc(=O)c2cc(O)ccc2o1` on Cholinesterase (Equus caballus) gives IC50 = 1

Field IC50 (Cholinesterase (Equus caballus)), entry `Cl.O=C(NCCCCCCCCCCNc1c2c(nc3cc(Cl)ccc13)CCCC2)c1cc(=O)c2cc(O)ccc2o1` : 3.5

Log: Cholinesterase (Equus caballus), compound `COc1ccc2oc(C(=O)NCCCCCCCCCCNc3c4c(nc5ccccc35)CCCC4)cc(=O)c2c1.Cl` , IC50 = 0.324

# `COc1cc2oc(C(=O)NCCCCCCCCCCNc3c4c(nc5cc(Cl)ccc35)CCCC4)cc(=O)c2cc1OC.Cl` with Cholinesterase (Equus caballus): IC50 is 0.85

The recorded IC50 with Cholinesterase (Equus caballus) for `COc1cc(OC)c2c(=O)cc(C(=O)NCCCCCCCCCCNc3c4c(nc5cc(Cl)cc(Cl)c35)CCCC4)oc2c1` was 0.75

Reported IC50 (Cholinesterase (Equus caballus)) for entry `COc1ccc2oc(C(=O)NCCCCCCCCCCNc3c4c(nc5cc(Cl)cc(Cl)c35)CCCC4)cc(=O)c2c1` is 7.5

Measured IC50 for this entry `COc1cc(O)c2c(=O)cc(C(=O)NCCCCCCCCCCNc3c4c(nc5cc(Cl)ccc35)CCCC4)oc2c1.Cl` on Cholinesterase (Equus caballus): 0.175

// IC50 (Cholinesterase (Equus caballus)) for `COc1cc(O)c2c(=O)cc(C(=O)NCCCCCCCCCCNc3c4c(nc5ccccc35)CCCC4)oc2c1.Cl` = 2

Cholinesterase (Equus caballus) assay, compound `COc1ccc2oc(C(=O)NCCCCCCCCCCNc3c4c(nc5cc(Cl)ccc35)CCCC4)cc(=O)c2c1.Cl` , recorded IC50 = 0.425

// IC50 (Cholinesterase (Equus caballus)) for `O=C(NCCCCCCCCCCNc1c2c(nc3cc(Cl)cc(Cl)c13)CCCC2)c1cc(=O)c2c(O)cc(O)cc2o1` = 35

// assay Cholinesterase (Equus caballus), entry `O=C(NCCCCCCCCCCCCNc1c2c(nc3ccccc13)CCCC2)c1cc(=O)c2ccccc2o1` , IC50 value = 0.25

Simply: `COc1cc(O)c2c(=O)cc(C(=O)NCCCCCCCCCCNc3c4c(nc5cc(Cl)cc(Cl)c35)CCCC4)oc2c1` , Cholinesterase (Equus caballus), IC50 = 35

Item `Cl.O=C(NCCCCCCCCCCNc1c2c(nc3cc(Cl)ccc13)CCCC2)c1cc(=O)c2c(O)cc(O)cc2o1` ; assay system Cholinesterase (Equus caballus); IC50 reported as 3

Value sought: IC50, system Cholinesterase (Equus caballus), item `Cl.O=C(NCCCCCCCCCCNc1c2c(nc3cc(Cl)ccc13)CCCC2)c1cc(=O)c2ccccc2o1` . Result: 0.18

Tested on Cholinesterase (Equus caballus): `Cl.O=C(NCCCCCCCCCCNc1c2c(nc3cc(Cl)ccc13)CCCC2)c1cc(=O)c2cc(O)c(O)cc2o1` . Observed IC50: 28

Cholinesterase (Equus caballus) assay, compound `O=C(NCCCCCCCCCNc1c2c(nc3ccccc13)CCCC2)c1cc(=O)c2ccccc2o1` , recorded IC50 = 0.58

With Cholinesterase (Equus caballus) as the test system, `COc1cc2oc(C(=O)NCCCCCCCCCCNc3c4c(nc5ccccc35)CCCC4)cc(=O)c2cc1OC.Cl` showed IC50 of 0.55

The compound `COc1cc(OC)c2c(=O)cc(C(=O)NCCCCCCCCCCNc3c4c(nc5ccccc35)CCCC4)oc2c1.Cl` on Cholinesterase (Equus caballus): IC50 was 0.325

The measured IC50 that `Cl.O=C(NCCCCCCCCCCNc1c2c(nc3ccccc13)CCCC2)c1cc(=O)c2c(O)cc(O)cc2o1` showed for Cholinesterase (Equus caballus) is 0.35

Measured IC50 (Cholinesterase (Equus caballus)), entry `O=C(NCCCCCCCCNc1c2c(nc3ccccc13)CCCC2)c1cc(=O)c2ccccc2o1` : 0.5

Reading of IC50 for `COc1cc2oc(C(=O)NCCCCCCCCCCNc3c4c(nc5cc(Cl)cc(Cl)c35)CCCC4)cc(=O)c2cc1OC` with Cholinesterase (Equus caballus): 100
